Hello, the source for this data is ChEMBL document CHEMBL3817748, in case you need it.

molecular target: Fibroblast growth factor receptor 1 (Mus musculus) (UniProt P16092); experiment: Agonist activity at FGFR1 in mouse NIH-3T3 cells assessed as increase in Akt phosphorylation at 15 uM after 10 mins by Western blot analysis; type: cell-based; conditions: NIH3T3
Sequence (P16092 whole entry): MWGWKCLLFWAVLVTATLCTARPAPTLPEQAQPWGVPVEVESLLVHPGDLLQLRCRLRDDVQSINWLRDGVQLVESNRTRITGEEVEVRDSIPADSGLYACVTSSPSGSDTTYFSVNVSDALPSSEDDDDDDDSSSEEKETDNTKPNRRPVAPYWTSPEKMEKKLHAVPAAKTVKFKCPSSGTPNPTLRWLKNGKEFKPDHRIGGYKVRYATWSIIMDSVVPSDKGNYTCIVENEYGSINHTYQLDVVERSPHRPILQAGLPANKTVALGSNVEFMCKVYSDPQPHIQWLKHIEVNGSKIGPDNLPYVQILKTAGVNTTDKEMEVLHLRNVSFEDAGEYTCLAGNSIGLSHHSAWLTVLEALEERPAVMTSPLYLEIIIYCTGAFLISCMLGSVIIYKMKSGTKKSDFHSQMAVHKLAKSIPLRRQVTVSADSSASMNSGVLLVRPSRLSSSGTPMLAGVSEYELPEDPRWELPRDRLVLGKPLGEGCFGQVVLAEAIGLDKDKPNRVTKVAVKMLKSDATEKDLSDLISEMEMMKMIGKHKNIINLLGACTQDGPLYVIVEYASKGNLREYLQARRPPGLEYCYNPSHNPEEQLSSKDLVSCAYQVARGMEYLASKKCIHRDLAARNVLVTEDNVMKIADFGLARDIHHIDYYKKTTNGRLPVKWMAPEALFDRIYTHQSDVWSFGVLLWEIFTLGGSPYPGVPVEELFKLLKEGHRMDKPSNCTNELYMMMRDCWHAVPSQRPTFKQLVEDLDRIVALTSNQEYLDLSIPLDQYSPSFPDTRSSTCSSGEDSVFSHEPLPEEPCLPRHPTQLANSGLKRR
Calls of active or inactive are those of the source. The rule behind the calls is not given here. *1 amine or outer side, *2 acyl side, *3 side chain or, on linkers, in order; H or OH if unused. Where a SMILES comes first, the peptide text is derived from it. [ ]: non-standard residue; d: D form. Gly(N-(CH2)3N-pyrrolidone) = O=C(O)CNCCCN1CCCC1=O; X1 = O=C(CN(Cc1cccc(C(F)(F)F)c1)[*:1])[*:2]; Nrpe = C[C@@H](NCC(=O)O)c1ccccc1; X2 = O=C(CN(CC1CCCO1)[*:1])[*:2]; NFurfurylGly = O=C(O)CNCc1ccco1; Gly(N-cPent) = O=C(O)CNC1CCCC1; NAllylGly = C=CCNCC(=O)O; Nphe = O=C(O)CNCc1ccccc1; Nlys = NCCCCNCC(=O)O
reported.property: Activity

C=CCN(CC(=O)N(CCCCN)CC(=O)N(CCCCN)CC(=O)N[C@@H](CS)C(N)=O)C(=O)CN(C(=O)CN(Cc1ccccc1)C(=O)CN(C(=O)CN(Cc1ccccc1)C(=O)CNC1CCCC1)C1CCCC1)[C@H](C)c1ccccc1 (H-[Gly(N-cPent)][Nphe][Gly(N-cPent)][Nphe][Nrpe][NAllylGly][Nlys][Nlys]C-NH2)
Active
C=CCN(CC(=O)N(CC(=O)N(CCCCN)CC(=O)N(CCCCN)CC(=O)N[C@@H](CS)C(N)=O)[C@H](C)c1ccccc1)C(=O)CN(Cc1ccco1)C(=O)CN(C(=O)CN(Cc1cccc(C(F)(F)F)c1)C(=O)CNCc1ccccc1)C1CCCC1 (H-[Nphe][X1][Gly(N-cPent)][NFurfurylGly][NAllylGly][Nrpe][Nlys][Nlys]C-NH2)
Active
C=CCN(CC(=O)N(CC(=O)N(CCCN1CCCC1=O)CC(=O)N(CCCCN)CC(=O)N(CCCCN)CC(=O)N[C@@H](CS)C(N)=O)CC1CCCO1)C(=O)CN(C(=O)CN(Cc1cccc(C(F)(F)F)c1)C(=O)CNCCCN1CCCC1=O)[C@H](C)c1ccccc1 (some centres undefined) (H-[Gly(N-(CH2)3N-pyrrolidone)][X1][Nrpe][NAllylGly][X2][Gly(N-(CH2)3N-pyrrolidone)][Nlys][Nlys]C-NH2)
Active

###

molecular target: Fibroblast growth factor receptor 2 (Homo sapiens); assay: Agonist activity at FGFR2 in human MDA231 cells assessed as increase in Akt phosphorylation at 15 uM after 10 mins by Western blot analysis; type: cell-based
Active and inactive are the calls of the source. The rule behind the calls is not given here. *1 amine or outer side, *2 acyl side, *3 side chain or, on linkers, in order; H or OH if unused. Where a SMILES comes first, the peptide text is derived from it. [ ]: non-standard residue; d: D form. Gly(N-CH2CH2C6H4-4Cl) = O=C(O)CNCCc1ccc(Cl)cc1; X1 = O=C(CN(Cc1cccc(C(F)(F)F)c1)[*:1])[*:2]; Nrpe = C[C@@H](NCC(=O)O)c1ccccc1; X2 = O=C(CN(CC1CCCO1)[*:1])[*:2]; NFurfurylGly = O=C(O)CNCc1ccco1; Gly(N-cPent) = O=C(O)CNC1CCCC1; NAllylGly = C=CCNCC(=O)O; Nphe = O=C(O)CNCc1ccccc1; Nlys = NCCCCNCC(=O)O
Give one outcome, nothing more. List: t (active), f (inactive)

C=CCN(CC(=O)N(CC(=O)N(CCCCN)CC(=O)N(CCCCN)CC(=O)N[C@@H](CS)C(N)=O)Cc1ccco1)C(=O)CN(Cc1ccco1)C(=O)CN(CC1CCCO1)C(=O)CN(C(=O)CNCCc1ccc(Cl)cc1)C1CCCC1 (stereo partly drawn) (H-[Gly(N-CH2CH2C6H4-4Cl)][Gly(N-cPent)][X2][NFurfurylGly][NAllylGly][NFurfurylGly][Nlys][Nlys]C-NH2)
f
C=CCN(CC(=O)N(CC(=O)N(CCCCN)CC(=O)N(CCCCN)CC(=O)N[C@@H](CS)C(N)=O)[C@H](C)c1ccccc1)C(=O)CN(Cc1ccco1)C(=O)CN(C(=O)CN(Cc1cccc(C(F)(F)F)c1)C(=O)CNCc1ccccc1)C1CCCC1 (H-[Nphe][X1][Gly(N-cPent)][NFurfurylGly][NAllylGly][Nrpe][Nlys][Nlys]C-NH2)
t

Note: attention shifts to another entry.
IN: Tell me the assay call for C=CCN(CC(=O)N(CCCCN)CC(=O)N(CCCCN)CC(=O)N[C@@H](CS)C(N)=O)C(=O)CN(C(=O)CN(Cc1ccccc1)C(=O)CN(C(=O)CN(Cc1ccccc1)C(=O)CNC1CCCC1)C1CCCC1)[C@H](C)c1ccccc1 (H-[Gly(N-cPent)][Nphe][Gly(N-cPent)][Nphe][Nrpe][NAllylGly][Nlys][Nlys]C-NH2) please.
OUT: t
